Tested on: SW1417 (Colorectal Carcinoma);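 also: after 72 h of two-drug dosing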
assay.notes: Bliss excess, mean over the matrix (fraction); higher = more synergy
property.measured: Bliss excess
Numbers only.

[
  {
    "compound": "CN(C)CCCOc1ccc(-c2ccc3ncc4c(c3c2)n(C2CCOCC2)c(=O)n4C)cn1 [AZD0156] + O=C(c1cc(Cc2n[nH]c(=O)c3ccccc23)ccc1F)N1CCN(C(=O)C2CC2)CC1 [Olaparib] (first compound max 3 µM, partner max 3 µM)",
    "target.under.test": "SW1417 (Colorectal Carcinoma)",
    "Bliss excess": -0.0287
  },
  {
    "compound": "CN(CCO)CC[C@H](CSc1ccccc1)Nc1ccc(S(=O)(=O)NC(=O)c2ccc(N3CCC([C@@H](O)c4ccccc4-c4ccc(Cl)cc4)CC3)cc2)cc1S(=O)(=O)C(F)(F)F [AZD4320] + Cn1cnc2c(F)c(Nc3ccc(Br)cc3Cl)c(C(=O)NOCCO)cc21 [Selumetinib] (first compound max 1 µM, 7x7, partner max 3 µM)",
    "target.under.test": "SW1417 (Colorectal Carcinoma)",
    "Bliss excess": 0.056
  }
]

Fill in: SW1417 (Colorectal Carcinoma) Bliss excess for CC1(C)CCC(CN2CCN(c3ccc(C(=O)NS(=O)(=O)c4ccc(NCC5CCOCC5)c([N+](=O)[O-])c4)c(Oc4cnc5[nH]ccc5c4)c3)CC2)=C(c2ccc(Cl)cc2)C1 [Venetoclax] + CCN(CCO)CCCOc1ccc2c(Nc3cc(CC(=O)Nc4cccc(F)c4)[nH]n3)ncnc2c1 [AZD2811] (first compound max 1 µM, 7x7, partner max 1 µM) = -0.0567
